The measurements presented in this section are drawn from ChEMBL document CHEMBL1649435.

- assay method text: Cytotoxicity against human Huh7.5 cells administered for 3 days measured 24 hrs after last dose by neutral red dye uptake assay
- Type: cell-based, Huh-7
Listed here: items and their measured CC50 at 72 h.
quantity kind: CC50 at 72 h

INSERT INTO measurements (item_smiles, measured) VALUES
  ('CCCCCCCCCCCCCCCCOCCCOP(=O)(O)CO[C@H](CO)Cn1cnc2c(N)ncnc21', '85.3 µM'),
  ('Nc1ncnc2c1ncn2C[C@H](CO)OCP(=O)(O)O', '> 100 µM'),
  ('Nc1ncnc2c1ncn2C[C@@H](CO)OCP(=O)(O)O', '> 100 µM'),
  ('CCCCCCCCCCCCCCCCOCCCOP(=O)(O)CO[C@@H](CO)Cn1cnc2c(N)ncnc21', '> 100 µM'),
  ('CCCCCCCCCCCCCCCCCCOCCOP(=O)(O)CO[C@@H](CO)Cn1cnc2c(N)ncnc21', '> 100 µM'),
  ('CCCCCCCCCCCCCCCCCCOCCOP(=O)(O)CO[C@H](CO)Cn1cnc2c(N)ncnc21', '35.6 µM');
